Cited source for all entries: patent EP3184514A1

Biological target: LC3B (Homo sapiens, UniProt Q9GZQ8)
Construct: made in house; host or cells: E. coli Rosetta (DE3)
Assay: AlphaScreen interaction displacement assay (GST-LC3B / biotin-LIRtide)
Type: binding
Settings: Table 1-a; n.e. means no effect; read-out: LC3B inhibition cell free IC50
pIC50: −log10 of the molar value.
Classification field: T = pIC50 at or over 5; F = pIC50 under 5.

[
  {
    "smiles": "Brc1ccc(CSC2=NCN(Cc3cccnc3)CN2)cc1",
    "class.label": "T"
  },
  {
    "smiles": "c1ccc(Oc2cccc(CSC3=NCN(Cc4cccnc4)CN3)c2)cc1",
    "class.label": "T"
  },
  {
    "smiles": "FC(F)(F)c1ccc(CSC2=NCN(Cc3cccnc3)CN2)cc1",
    "class.label": "F"
  },
  {
    "smiles": "Clc1ccc(CSC2=NCN(Cc3cccnc3)CN2)cc1",
    "class.label": "F"
  },
  {
    "smiles": "CC(C)CCNC(=O)c1ccc(CSC2=NCN(Cc3cccnc3)CN2)cc1",
    "class.label": "F"
  }
]

###

Target: LC3 proteins
Assay: ITC and NMR titrations
Settings: by ITC and NMR
Where a name gives a salt, the structure may show the parent alone.

[
  {
    "compound": "CO[C@@H]1[C@@H](OC(N)=O)[C@@H](O)[C@H](Oc2ccc3c(O)c(NC(=O)c4ccc(O)c(CC=C(C)C)c4)c(=O)oc3c2C)OC1(C)C [Compound 2-0, Novobiocin Sodium Salt]",
    "Kd": "5 to 50 µM"
  }
]

###

Target: LC3B (Homo sapiens, UniProt Q9GZQ8)
Construct: made in house; host or cells: E. coli Rosetta (DE3)
Experiment: AlphaScreen interaction displacement assay (GST-LC3B / biotin-LIRtide)
Assay type: binding
Conditions: Table 2a; read-out: LC3B Inhibition cell free IC50
pIC50: −log10 of the molar value.
pIC50 values by entry

[
  {
    "molecule": "CC(C)=CCc1cc(C(=O)Nc2c(O)c3ccc(O)c(C)c3oc2=O)ccc1O",
    "pIC50": 4.06
  },
  {
    "molecule": "COC1C(OC(N)=O)C(O)C(Oc2ccc3c(O)c(NC(=O)c4ccc(O)c(CCC(C)C)c4)c(=O)oc3c2C)OC1(C)C (stereo not drawn)",
    "pIC50": 5.32
  },
  {
    "molecule": "COC1C(OC(N)=O)C(OC(C)=O)C(Oc2ccc3c(O)c(NC(=O)C(Cc4ccccc4)NC(=O)OC(C)(C)C)c(=O)oc3c2C)OC1(C)C (stereo not drawn)",
    "pIC50": 3.84
  },
  {
    "molecule": "Cc1c(O)ccc2c(O)c(NC(=O)C(Cc3ccccc3)NC(=O)OC(C)(C)C)c(=O)oc12 (stereo not drawn)",
    "pIC50": 3.91
  },
  {
    "molecule": "Cc1c(O)ccc2c(O)c(NC(=O)C(CCc3ccccc3)NC(=O)OC(C)(C)C)c(=O)oc12 (stereo not drawn)",
    "pIC50": 3.81
  },
  {
    "molecule": "Cc1c(O)ccc2c(O)c(NC(=O)c3cccc(-c4ccccc4)c3)c(=O)oc12",
    "pIC50": 4.20
  },
  {
    "molecule": "Cc1c(O)ccc2c(O)c(NC(=O)C(CC(C)C)NC(=O)OC(C)(C)C)c(=O)oc12 (stereo not drawn)",
    "pIC50": 4.13
  },
  {
    "molecule": "Cc1c(O)ccc2c(O)c(NC(=O)c3cccc(Oc4ccccc4)c3)c(=O)oc12",
    "pIC50": 4.27
  },
  {
    "molecule": "COC1C(OC(N)=O)C(OC(C)=O)C(Oc2ccc3c(O)c(NC(=O)c4ccc(OC(C)=O)c(CC=C(C)C)c4)c(=O)oc3c2C)OC1(C)C (stereo not drawn)",
    "pIC50": 4.71
  }
]
